test system: COLO 205 colon; assay: NCI tumour cell line growth inhibition, 48 h
Quantity: TGI

Example entries and their recorded answers appear below.
NNC(=O)c1ccccc1Nc1ccccc1C(=O)NN ... > 100 µM
COC(=O)C1=NN2c3ccccc3C(=O)OCCC2(C)C1 (stereo not drawn) ... > 100 µM
CC(C)(C)[Si](C)(C)OCCCCC1CC2(S(=O)(=O)C3=CC=C=C=C3)ON1CC2S(=O)(=O)c1ccccc1 (stereo not drawn) ... > 100 µM
COc1ccc(CNC2=C(NC(C)=O)C(=O)c3ccccc3C2=O)cc1 ... 16.4 µM
S=c1nc2[nH]ncc2c(N/N=C/c2ccccc2)[nH]1 ... > 100 µM

*Q* Give recorded TGI with COLO 205 colon for the following compound: CCOC(=O)c1c(-c2ccccc2)[n+](=O)c2ccc(Cl)cc2n1[O-]
*A* 13.6 µM

*Q* How about COc1cc(C#N)cc(OC)c1OCCOCCOc1c(OC)cc(C#N)cc1OC ?
*A* > 100 µM

*Q* Here is the next compound: O=C1OCC2(CO1)CC1C=CC2C1 (stereo not drawn)
*A* > 100 µM

---

Entries and their TGI
tested on: MOLT-4 leukemia; test: NCI tumour cell line growth inhibition, 48 h
*1 amine or outer side, *2 acyl side, *3 side chain or, on linkers, in order; H or OH if unused. Where a SMILES comes first, the peptide text is derived from it. Bridges are numbered along the chain shown (N, C = ends). Roman numbers before positions name the chains, in order. [ ]: non-standard residue; d: D form. Actinocin(9to1) = Cc1c2oc3c(C)ccc(C(=O)[*:1])c3nc-2c(C(=O)[*:2])c(N)c1=O; X48 = O=C1CC(C(=O)[*:2])N([*:1])C1; NMeV = CN[CH](C(=O)O)C(C)C; Sar = CNCC(=O)O

*Q* Which TGI value is on record for Cc1c2oc3c(C)ccc(C(=O)NC4C(=O)NC(C(C)C)C(=O)N5CC(=O)CC5C(=O)N(C)CC(=O)N(C)C(C(C)C)C(=O)OC4C)c3nc-2c(C(=O)NC2C(=O)NC(C(C)C)C(=O)N3CC(=O)CC3C(=O)N(C)CC(=O)N(C)C(C(C)C)C(=O)OC2C)c(N)c1=O (stereo not drawn) (I: TV[X48][Sar][NMeV] / II: TV[X48][Sar][NMeV]; ester I:1-I:C, II:1-II:C; linker I:N-II:N via Actinocin(9to1); configuration not given here) ?
*A* > 1 µM

*Q* Query COc1cc(/C=C2\CN(C)C/C(=C\c3cc(OC)c(OC)c(OC)c3)C2=O)cc(OC)c1OC next
*A* 4.5 µM

*Q* Item: N=C1N(c2ccccc2)C(=O)C23CCCC2C13N1CCOCC1 (stereo not drawn)
*A* > 100 µM

*Q* # repeat for Cc1c(C(=O)CC(=O)C(=O)Nc2ccc(Cl)c(Cl)c2)[n+](=O)c2ccccc2n1[O-]
*A* 44.5 µM

*Q* And then C=C(C)CC1=C(OCC)C(OC)(OCC)C1=O (stereo not drawn) , what is it?
*A* > 100 µM

*Q* How about O=C(O)C(Cc1c[nH]c2ccccc12)N=Cc1nc(-c2ccccc2)oc1O (stereo not drawn) ?
*A* > 100 µM

*Q* Also N#CC(=S)Nc1ccc(Cl)c(Cl)c1 ?
*A* 43.5 µM

*Q* Would you kindly repeat that for CCOC(=O)C1CCn2c(nc3c2c(=O)n(C)c(=O)n3C)S1 (stereo not drawn) ?
*A* > 100 µM

*Q* Continue with CC1=C2C(=O)OCC23C=COC3(C)O1 (stereo not drawn)
*A* > 100 µM

*Q* Thanks! And COC(=O)C(C(=O)C(=O)NC1=C(Cl)C(=O)c2ccccc2C1=O)c1csc(-n2nc(-c3ccccc3)cc2-c2ccccc2)n1 (stereo not drawn) ?
*A* > 100 µM

*Q* Similarly, CS(=O)(=O)c1nc(-c2cc3c(c(S(C)(=O)=O)n2)CCCC3)cc2c1CCCC2 ?
*A* > 100 µM

*Q* # repeat for Cc1c2c(nn1C(=O)c1nn(-c3ccc(Cl)cc3)cc1O)-c1ccccc1CC2
*A* > 39.5 µM

*Q* Could you do the same for COC(=O)C1C(C)N1C (stereo not drawn) , please?
*A* > 100 µM

*Q* Continue with COC(=O)CCC(NC(=O)C(C)NC(=O)COC1C(O)C(OC(=O)CCNc2c3ccccc3nc3cccc([N+](=O)[O-])c23)OC(OCc2ccccc2)C1NC(C)=O)C(N)=O (stereo not drawn)
*A* > 10 µM

*Q* Input COc1ccc(/C(C)=C(\c2ccc(Cl)cc2)c2ccc(OCCN3CCCC3)cc2)cc1F
*A* 8.28 µM

*Q* Follow-up entry: COC(=O)N/N=C(/CCN1CCCC1)CC(c1ccccc1)c1c(O)c2ccccc2oc1=O (stereo not drawn)
*A* > 100 µM

*Q* Record: CN(C)CCCN(c1nc(C(Cl)(Cl)Cl)ns1)c1nc(C(Cl)(Cl)Cl)ns1
*A* 4.23 µM

*Q* Next record, please: c1ccc(C2C3=C(CCCC3)Nc3nc4cc5ccccc5cc4n32)cc1 (stereo not drawn)
*A* > 100 µM

---

test system: CCRF-CEM leukemia; assay: NCI tumour cell line growth inhibition, 48 h
Quantity: TGI

Observe how each entry below is paired with its result.
Nc1nc(Nc2ccccc2)sc1C(=O)c1ccc(Cl)cc1 ... > 100 µM
COC(=O)C1C(O)CCC2CN3CCc4c([nH]c5cccc(OC)c45)C3CC21 (stereo not drawn) ... > 100 µM

Shift focus to the following entry.
*Q* What measured TGI is associated with Cc1cc2c(cc1Cl)SC(N/N=C(\N)c1ccc(Cl)cc1)=NS2(=O)=O on CCRF-CEM leukemia?
*A* > 100 µM

---

system: IGROV1 ovarian; test: NCI tumour cell line growth inhibition, 48 h
*1 amine or outer side, *2 acyl side, *3 side chain or, on linkers, in order; H or OH if unused. Where a SMILES comes first, the peptide text is derived from it. Bridges are numbered along the chain shown (N, C = ends). Roman numbers before positions name the chains, in order. [ ]: non-standard residue; d: D form. Actinocin(9to1) = Cc1c2oc3c(C)ccc(C(=O)[*:1])c3nc-2c(C(=O)[*:2])c(N)c1=O; X48 = O=C1CC(C(=O)[*:2])N([*:1])C1; NMeV = CN[CH](C(=O)O)C(C)C; Sar = CNCC(=O)O
Quantity: TGI

Before answering, review these 2 worked examples.
CN1C2CCC1C(C(O)c1ccccc1[N+](=O)[O-])C(=O)C2 (stereo unspecified) ... > 100 µM
Cc1c2oc3c(C)ccc(C(=O)NC4C(=O)NC(C(C)C)C(=O)N5CC(=O)CC5C(=O)N(C)CC(=O)N(C)C(C(C)C)C(=O)OC4C)c3nc-2c(C(=O)NC2C(=O)NC(C(C)C)C(=O)N3CC(=O)CC3C(=O)N(C)CC(=O)N(C)C(C(C)C)C(=O)OC2C)c(N)c1=O (stereo unspecified) (I: TV[X48][Sar][NMeV] / II: TV[X48][Sar][NMeV]; ester I:1-I:C, II:1-II:C; linker I:N-II:N via Actinocin(9to1); configuration not given here) ... > 1 µM

*Q* Looking for the measured TGI of COC1O[C@@H]2CCN3C(=O)[C@@H](OC(=O)c4ccc([N+](=O)[O-])cc4)[C@H]1C23 (stereo partly specified) , can you help?
*A* > 100 µM

*Q* Would you mind doing O=C(c1cccc(OCc2ccccc2)c1OCc1ccccc1)N1CCSC1=S as well?
*A* > 100 µM

*Q* Could you do the same for O=C(Nc1nccs1)c1cc2c(cc1Cl)Sc1nccn1S2(=O)=O , please?
*A* 29.8 µM

*Q* What do we get for CCC(C)C1NC(=O)C2CCCN2C(=O)C(CC2CO2)OC(=O)CCNC(=O)C(C)N(C)C(=O)C(C(C)C)N(C)C1=O (stereo unspecified) ?
*A* > 100 µM

*Q* One more compound: O=C(O)c1ccc2c(c1Nc1ccccc1)C(=O)c1ccccc1C2=O
*A* > 100 µM

*Q* How about this compound: CCCCCCCC/C=C/CCCCCCCC1=NC(C)(C)CN1C(C)C
*A* 2.14 µM

*Q* Consider next the compound C/C(=N\NC(=O)c1cccnc1)c1cccc(/C(C)=N/NC(=O)c2cccnc2)n1 in the same way.
*A* 27.7 µM

*Q* Now consider COC(=O)/C(C#N)=C1\CCC(O)N1C (stereo unspecified) and answer again.
*A* > 100 µM

---

tested on: UO-31 renal; test: NCI tumour cell line growth inhibition, 48 h
Quantity: TGI

Below: 4 molecules and their reported TGI.
CCCCCCCC/C=C\CCCCCCC(F)C(=O)O (configuration not stated) ... > 12.5 µM
Cc1cc(O)c(C(C)C)cc1CN1CCCCC1 ... > 100 µM
O=C1c2ccccc2-c2nc3ccc(O)cc3n21 ... > 100 µM
COc1ccc(CNC2=C(NC(C)=O)C(=O)c3ccccc3C2=O)cc1 ... 40.2 µM

*Q* GET /values?readout=TGI&item= Nc1ncnc2c1ncn2C1C=CC(CP(=O)(O)O)C1 (configuration not stated)
*A* > 100 µM

*Q* Now the same for COc1cc2nc(Sc3c([N+](=O)[O-])ncn3C)[nH]c2cc1OC
*A* > 100 µM

*Q* # iterate: Oc1ccc(CNCc2ccccc2)c2cccnc12
*A* > 24.4 µM

*Q* Okay, and C/C(=N\NC(=O)c1cccnc1)c1cccc(/C(C)=N/NC(=O)c2cccnc2)n1 ?
*A* 80.7 µM

*Q* Same thing, different molecule: CCCCOC(=O)C1CN2C=CC=NC2=NC1(C(F)(F)F)C(F)(F)F (configuration not stated)
*A* > 100 µM

*Q* Entry CCCN1CN(C(C(=O)N[C@@H]2C(=O)N3C2SC(C)(C)C3C(=O)O)c2ccccc2)CSC1=S (some centres not stated) please
*A* > 100 µM

*Q* Also need CC(=O)OCCCCn1cnc2nc(Nc3ccccc3)nc(Cl)c21 , thanks.
*A* > 100 µM

*Q* Next molecule: O=C(O)C1(C(=O)O)CC1(C(=O)O)C(=O)O
*A* > 100 µM

*Q* Next record, please: Cc1cc(O)c(C(c2cccnc2)c2c(O)cc(C)[nH]c2=O)c(=O)[nH]1
*A* > 100 µM

*Q* Please do the same for Clc1cc(Cl)c(Cl)c(-c2nc(-c3cccnc3)cs2)c1 as well.
*A* > 100 µM

*Q* Further, for CN1CCC[C@@H]1CCO[C@](C)(c1ccccc1)c1ccc(Cl)cc1 ?
*A* 16.3 µM

*Q* Field entry: CC1=NN(C(=O)CC(=O)Nc2ccccc2Cl)C(=O)C1N=Nc1ccc(C(=O)O)cc1 (configuration not stated)
*A* > 100 µM

*Q* Cool, now CC(=O)OC1CC(O)CC2=CCC3C4CCC(C(C)(O)C(O)CC5COC(=O)C5C)C4(C)CCC3C21C (configuration not stated)
*A* > 25 µM
